Where these numbers come from: paper PMC2658056

measurement.description: Pharmacokinetics of AT-56 in plasma
Type: in vivo, C57BL/6 mice
test.conditions: male, C57BL/6, mouse, iv, 2 mg/kg
property.name: half-life (h)
Express the result in h but write the number alone.

Fill in: half-life of C1=Cc2ccccc2C(=C2CCN(CCCCc3nn[nH]n3)CC2)c2ccccc21 is ___
2.35

* * *

measurement.description: Pharmacokinetics of AT-56 in plasma
Type: in vivo, C57BL/6 mice
test.conditions: male, C57BL/6, mouse, po, 10 mg/kg
property.name: Cmax (ng/mL)
Express the result in ng/mL but write the number alone.

Fill in: Cmax of C1=Cc2ccccc2C(=C2CCN(CCCCc3nn[nH]n3)CC2)c2ccccc21 is ___
2150
